Recorded values, source patent US8796457B2.

target: JAK1 (Homo sapiens (Human)); assay: JAK1 Ki determination assay (Ulight-JAK-1 peptide); type: biochemical; settings: Lineweaver-Burk; Ulight-JAK-1 (Tyr1023) peptide, alternative protocol
Metric: pKi
// pKi: -log10(molar conc.)

Prompt: What value of pKi has been recorded for this entry: CC1(C)CN(C(=O)c2ccc(-c3cccc4nc(NC(=O)C5CC5)nn34)cc2)C1
Response: 8.25

* * *

molecular target: Recombinant human TYK2 catalytic domain (Homo sapiens (Human)); experiment: TYK2 inhibition assay; details: 0.1 μM ATP
Sequence (P29597 871-1187): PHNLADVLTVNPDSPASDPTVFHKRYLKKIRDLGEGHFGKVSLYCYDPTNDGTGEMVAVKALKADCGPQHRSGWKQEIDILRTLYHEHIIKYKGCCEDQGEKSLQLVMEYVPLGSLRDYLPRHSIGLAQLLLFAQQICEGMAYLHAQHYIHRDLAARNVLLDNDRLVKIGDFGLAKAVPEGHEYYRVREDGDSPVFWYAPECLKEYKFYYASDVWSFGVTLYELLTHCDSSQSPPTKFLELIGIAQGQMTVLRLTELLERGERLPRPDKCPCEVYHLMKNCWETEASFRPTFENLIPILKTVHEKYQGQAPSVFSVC
Metric: IC50 (nM)
Express your answer in nM, writing the number without its unit.

Prompt: What value of IC50 has been recorded for this entry: CC1(C)CN(C(=O)c2ccc(-c3cccc4nc(NC(=O)C5CC5)nn34)cc2)C1
Response: 219

* * *

target: Recombinant human JAK1 (catalytic domain) (Homo sapiens (Human), UniProt P23458); assay: JAK1 inhibition assay; details: average ± standard error of the mean; 7 μM ATP
Sequence (P23458 866-1154): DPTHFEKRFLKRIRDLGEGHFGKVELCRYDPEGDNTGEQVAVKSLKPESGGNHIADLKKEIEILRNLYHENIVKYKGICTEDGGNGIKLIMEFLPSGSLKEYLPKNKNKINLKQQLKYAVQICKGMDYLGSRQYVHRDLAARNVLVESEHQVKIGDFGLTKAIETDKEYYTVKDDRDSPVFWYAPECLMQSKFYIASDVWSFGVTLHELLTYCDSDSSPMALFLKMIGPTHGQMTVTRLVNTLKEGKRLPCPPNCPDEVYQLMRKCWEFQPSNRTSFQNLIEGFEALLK
Metric: IC50 (nM)
Express your answer in nM, writing the number without its unit.

Prompt: Return IC50 measured with Recombinant human JAK1 (catalytic domain) (Homo sapiens (Human), UniProt P23458) given this compound: CC1(C)CN(C(=O)c2ccc(-c3cccc4nc(NC(=O)C5CC5)nn34)cc2)C1
Response: 6.6

* * *

biological target: JAK1 (Homo sapiens (Human), UniProt P23458); experiment: JAK1 Ki determination assay (polyGT, 33P filter plate); assay type: biochemical; conditions: Lineweaver-Burk; polyGT substrate, 33P readout
Metric: Ki
In your response, the unit should come after the numeric value.

Prompt: What value of Ki has been recorded for this entry: CC1(C)CN(C(=O)c2ccc(-c3cccc4nc(NC(=O)C5CC5)nn34)cc2)C1
Response: 6.9 nM
